# Test system: Key Broadleaf Weed and Crop Species
# experiment_notes: Post-Emergent Test II: postemergent herbicidal activity, visual rating after 14 d (Table 7)
# Type: in vivo
# details: post-emergence, 336 h, sunflower (Helianthus annuus), 140 g ai/ha, read-out: Visual Growth Reduction (%) 14 Days After Application HELAN
value_kind: pest or weed control at 140 g/ha

-- ask Identify pest or weed control at 140 g/ha associated with the molecule COC(=O)c1nc(-c2ccc3c(c2)OC(C)O3)c(F)c(N)c1Cl (stereo not shown)
-- reply 85 to 94%

-- ask Supply reported pest or weed control at 140 g/ha belonging to this molecule: COC(=O)c1nc(-c2ccc(F)c3c2OC(F)(F)O3)c(F)c(N)c1Cl
-- reply 85 to 94%

-- ask Supply reported pest or weed control at 140 g/ha belonging to this molecule: COc1c(C(=O)O)nc(-c2ccc3c(c2)OC(F)(F)O3)c(F)c1N
-- reply 0 to 29%

-- ask Dear colleague, please send me the reported pest or weed control at 140 g/ha for Nc1c(F)c(-c2ccc(I)c3c2OC(F)(F)O3)nc(C(=O)O)c1Cl when you can.
-- reply 85 to 94%

-- ask // fetch pest or weed control at 140 g/ha given entry Nc1c(Cl)c(C(=O)O)nc(-c2ccc3c(c2F)OC(F)(F)O3)c1Cl
-- reply 45 to 59%

-- ask Answer with reported pest or weed control at 140 g/ha of COC(=O)c1nc(-c2ccc3c(c2)OC(C)(C)O3)nc(N)c1OC
-- reply 0 to 29%

-- ask Find the measured pest or weed control at 140 g/ha of Nc1cc(-c2ccc3c(c2Cl)OC(F)(F)O3)nc(C(=O)O)c1Cl and report it.
-- reply 85 to 94%

-- ask Quick one: give measured pest or weed control at 140 g/ha for COC(=O)c1nc(-c2ccc3c(c2)OC(F)(F)O3)c(Cl)c(N)c1Cl
-- reply 85 to 94%

-- ask Read the entry COc1c(N)nc(-c2ccc3c(c2F)OC(F)(F)O3)nc1C(=O)O and write its reported pest or weed control at 140 g/ha.
-- reply 95 to 100%

-- ask Assign pest or weed control at 140 g/ha to the following record: Nc1nc(-c2cc3c(cc2F)OC(F)(F)O3)nc(C(=O)O)c1Cl
-- reply 95 to 100%

-- ask Please look at this molecule and report its pest or weed control at 140 g/ha: Nc1c(F)c(-c2cccc3c2OCO3)nc(C(=O)O)c1Cl
-- reply 95 to 100%

-- ask Look up and state reported pest or weed control at 140 g/ha for COC(=O)c1nc(-c2cc3c(cc2F)OC(F)(F)O3)nc(N)c1Cl
-- reply 85 to 94%

-- ask Provide only the value of recorded pest or weed control at 140 g/ha for COC(=O)c1nc(-c2cccc3c2OCO3)c(F)c(N)c1Cl
-- reply 95 to 100%

-- ask // fetch pest or weed control at 140 g/ha given entry COC(=O)c1nc(-c2ccc3c(c2F)OC(F)(F)O3)nc(N)c1Cl
-- reply 75 to 84%

-- ask In one line, give reported pest or weed control at 140 g/ha of the entry COC(=O)c1nc(-c2c(F)cc3c(c2F)OCO3)cc(N)c1Cl .
-- reply 60 to 74%

-- ask Kindly indicate its recorded pest or weed control at 140 g/ha. Item: COC(=O)c1nc(-c2ccc3c(c2F)OC(F)(F)O3)c(F)c(N)c1Cl
-- reply 85 to 94%
